Molecular target: human RORγt ligand binding domain (RORγt LBD) (Homo sapiens (Human), UniProt P51449)
Sequence (P51449 other isoform, or with tags, fused parts or gaps): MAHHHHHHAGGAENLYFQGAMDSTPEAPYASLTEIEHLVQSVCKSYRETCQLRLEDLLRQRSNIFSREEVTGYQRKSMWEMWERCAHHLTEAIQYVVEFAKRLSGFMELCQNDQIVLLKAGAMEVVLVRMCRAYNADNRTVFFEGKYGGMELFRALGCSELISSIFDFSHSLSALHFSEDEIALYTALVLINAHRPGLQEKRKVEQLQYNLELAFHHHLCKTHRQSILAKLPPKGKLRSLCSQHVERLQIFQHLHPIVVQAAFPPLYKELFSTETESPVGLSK
Test: RORγt ThermoFluor® assay (thermal shift binding)
Conditions: ThermoFluor® Assay, Kd
pKd: −log10 of the molar value.
If the reported pKd equals or exceeds 7, assign satisfied. If not, assign not satisfied.

Observe how each entry below is paired with its result.
• CCn1nc(C(=O)NC[C@]2(C(=O)O)CC[C@H](S(C)(=O)=O)CC2)c(Cl)c1-c1ccc(N[C@H](C)C(F)(F)F)cc1OC (relative stereo) = not satisfied
• CCn1nc(C(=O)NC[C@]2(O)CC[C@@H](S(C)(=O)=O)CC2)c(Cl)c1-c1ccc(C2(O)CCC(C(F)(F)F)CC2)cc1OC(F)F (single isomer, unassigned) [Example 112] = not satisfied
• CCn1nc(C(=O)NC[C@H]2CC[C@H](S(C)(=O)=O)CC2)c(Cl)c1-c1ccc(C2(O)CCC(C(F)(F)F)CC2)cc1OC(F)F (single isomer, unassigned) [Example 115] = satisfied
• CCn1nc(C(=O)NC[C@@]2(O)CC[C@H](S(C)(=O)=O)C[C@@H]2O)c(Cl)c1-c1ccc(CC(C)(C)C(F)(F)F)cc1OC(F)F (single isomer, unassigned) = satisfied
• CCn1nc(C(=O)NC[C@H]2CC[C@H](S(C)(=O)=O)CO2)c(Cl)c1-c1ccc(CC(C)(C)C(F)(F)F)cc1OC(F)F (single isomer, unassigned) = satisfied

**Q:** Quick check: does CCn1nc(C(=O)NC[C@]2(O)CC[C@@H](S(C)(=O)=O)C[C@H]2O)c(Cl)c1-c1ccc(C[C@H](C)C(F)(F)F)cc1OC(F)F (stereo in doubt) have pKd greater than or equal to 7?
**A:** satisfied

**Q:** Next: CCCn1nc(C(=O)NC[C@]2(O)CC[C@@H](S(C)(=O)=O)CC2)c(Cl)c1-c1ccc(C[C@@H](C)C(F)(F)F)cc1OC (single isomer, unassigned)
**A:** satisfied

**Q:** Next: CCn1nc(C(=O)NC[C@]2(C(=O)O)CC[C@@H](S(C)(=O)=O)CC2)c(Cl)c1-c1ccc(N[C@H](C)C(F)(F)F)cc1OC (relative stereo)
**A:** not satisfied

**Q:** Next: CCn1nc(C(=O)NC[C@H]2CC[C@H](S(C)(=O)=O)CC2)c(Cl)c1-c1ccc(C[C@H](C)C(F)(F)F)cc1OC(F)F (single isomer, unassigned)
**A:** satisfied
